Hi there, I'd appreciate the recorded EC50 for every entry that follows.
- system: human GPR119 (Homo sapiens, UniProt Q8TDV5)
- experimental.protocol: Measurement of GPR119 signaling by cAMP (LANCE cAMP kit or HTRF) in HEK293 cells transfected with human GPR119
- settings: agonist cAMP response in HEK293 cells stably transfected with human GPR119; patent does not say which of the two cAMP formats (LANCE or HTRF)
Your answer is read as nM, so omit the unit and give the number.

EC50 for Cc1ccc2n1CCN(C(=O)Cc1ccc(OCC[C@@H]3C[C@@H]3C3CCN(c4ncc(Cl)cn4)CC3)cc1F)C2C (some centres unmarked) is 3.4

EC50 for COCc1cnc(N2CCC([C@H]3C[C@H]3CCOc3cc(F)c(CC(=O)N(C)C)c(F)c3)CC2)nc1 is 0.4

EC50 for CC1CN(C(=O)Cc2ccc(OCC[C@@H]3C[C@@H]3C3CCN(c4ncc(Cl)cn4)CC3)cc2F)Cc2nnc(C(F)(F)F)n21 (some centres unmarked) is 1.1

EC50 for CC(C)(O)Cn1cc2c(n1)CN(C(=O)Cc1ccc(OCC[C@@H]3C[C@@H]3C3CCN(c4ncc(Cl)cn4)CC3)cc1F)C2 is 3.2

EC50 for O=C(Cc1ccc(OCC[C@@H]2C[C@@H]2C2CCN(c3ncc(Cl)cn3)CC2)cc1F)N1CCC(C(F)(F)F)n2nccc21 (some centres unmarked) is 2.9

EC50 for CN(C(=O)Cc1ccc(OCC[C@@H]2C[C@@H]2C2CCN(c3ncc(Cl)cn3)CC2)cc1F)C1CCCC1 is 2.9

EC50 for O=C(Cc1ccc(OCC[C@@H]2C[C@@H]2C2CCN(c3ncc(Cl)cn3)CC2)cc1F)N1CCc2ccncc2C1 is 2.3

EC50 for O=C(Cc1ccc(OCC[C@@H]2C[C@@H]2C2CCN(c3ncc(Cl)cn3)CC2)cc1F)N1CCc2c(C3CC3)n[nH]c2C1 is 3.1

====

- system: human GPR119 (Homo sapiens, UniProt Q8TDV5)
- Sequence (Q8TDV5 1-308 limits assumed): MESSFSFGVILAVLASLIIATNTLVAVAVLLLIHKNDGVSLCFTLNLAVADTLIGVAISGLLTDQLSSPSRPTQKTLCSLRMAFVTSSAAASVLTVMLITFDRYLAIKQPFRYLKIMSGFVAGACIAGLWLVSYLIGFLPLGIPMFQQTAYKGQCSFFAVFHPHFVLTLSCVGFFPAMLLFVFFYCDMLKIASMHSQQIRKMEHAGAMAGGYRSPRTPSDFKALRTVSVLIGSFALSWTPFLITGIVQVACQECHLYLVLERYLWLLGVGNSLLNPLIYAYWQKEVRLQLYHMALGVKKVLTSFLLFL
- experimental.protocol: Measurement of GPR119 signaling by cAMP (LANCE cAMP kit or HTRF) in HEK293 cells transfected with human GPR119
- Assay type: cell-based
- settings: agonist cAMP response in HEK293 cells stably transfected with human GPR119; patent does not say which of the two cAMP formats (LANCE or HTRF)
Threshold check on EC50: strictly below 0.6 nM is YES; on or above 0.6 nM is NO.

Identify whether the molecule CC1c2nc(C(F)(F)F)cn2CCN1C(=O)Cc1ccc(OCC[C@@H]2C[C@@H]2C2CCN(c3ncc(Cl)cn3)CC2)cc1F (stereo partly drawn) records EC50 below 0.6 nM.
YES

Identify whether the molecule COCc1cnc(N2CCC([C@H]3C[C@H]3CCOc3ccc(CC(=O)N(C)C4CC4)c(F)c3)CC2)nc1 records EC50 below 0.6 nM.
NO

Identify whether the molecule CN(CC(N)=O)C(=O)Cc1ccc(OCC[C@@H]2C[C@@H]2C2CCN(c3ncc(Cl)cn3)CC2)cc1F records EC50 below 0.6 nM.
NO

Identify whether the molecule O=C(Cc1ccc(OCC[C@@H]2C[C@@H]2C2CCN(c3ncc(Cl)cn3)CC2)cc1F)N1CCn2ncnc2C1 records EC50 below 0.6 nM.
YES

Identify whether the molecule O=C(c1cn2c(n1)CN(C(=O)Cc1ccc(OCC[C@@H]3C[C@@H]3C3CCN(c4ncc(Cl)cn4)CC3)cc1F)CC2)C1CC1 records EC50 below 0.6 nM.
NO

Identify whether the molecule CN(C)C(=O)Cc1ccc(OCC[C@@H]2C[C@@H]2C2CCN(c3ncc(Cl)cn3)CC2)cc1F records EC50 below 0.6 nM.
NO
